# Target or test system: Transient receptor potential cation channel subfamily V member 1 (Homo sapiens)
# Test name: Agonist activity at human TRPV1 ion channel expressed in HEK293 cells assessed as calcium influx by fluo-4-Am-based fluorimetry
Recorded EC50, one value per entry.
Response body: numeric value in nM, unit text excluded.

Illustrative cases are given below, each with its answer.
1. Cc1cc(O)c(C(C)C)cc1CCC(=O)CC(O)CCCCCCc1ccccc1 (stereo not drawn)	500
2. O=C(CCc1ccc(O)cc1)CC(O)Cc1ccccc1 (stereo not drawn)	1000

Now for the compound whose EC50 we want.
Data request: Tell me measured EC50 for O=C(CCc1ccc(O)cc1)CC(O)CCCCCCc1ccccc1 (stereo not drawn) please.
Data returned: 14600

====

# Target or test system: Transient receptor potential cation channel subfamily A member 1 (Rattus norvegicus) (UniProt Q6RI86)
# Sequence (Q6RI86 whole entry): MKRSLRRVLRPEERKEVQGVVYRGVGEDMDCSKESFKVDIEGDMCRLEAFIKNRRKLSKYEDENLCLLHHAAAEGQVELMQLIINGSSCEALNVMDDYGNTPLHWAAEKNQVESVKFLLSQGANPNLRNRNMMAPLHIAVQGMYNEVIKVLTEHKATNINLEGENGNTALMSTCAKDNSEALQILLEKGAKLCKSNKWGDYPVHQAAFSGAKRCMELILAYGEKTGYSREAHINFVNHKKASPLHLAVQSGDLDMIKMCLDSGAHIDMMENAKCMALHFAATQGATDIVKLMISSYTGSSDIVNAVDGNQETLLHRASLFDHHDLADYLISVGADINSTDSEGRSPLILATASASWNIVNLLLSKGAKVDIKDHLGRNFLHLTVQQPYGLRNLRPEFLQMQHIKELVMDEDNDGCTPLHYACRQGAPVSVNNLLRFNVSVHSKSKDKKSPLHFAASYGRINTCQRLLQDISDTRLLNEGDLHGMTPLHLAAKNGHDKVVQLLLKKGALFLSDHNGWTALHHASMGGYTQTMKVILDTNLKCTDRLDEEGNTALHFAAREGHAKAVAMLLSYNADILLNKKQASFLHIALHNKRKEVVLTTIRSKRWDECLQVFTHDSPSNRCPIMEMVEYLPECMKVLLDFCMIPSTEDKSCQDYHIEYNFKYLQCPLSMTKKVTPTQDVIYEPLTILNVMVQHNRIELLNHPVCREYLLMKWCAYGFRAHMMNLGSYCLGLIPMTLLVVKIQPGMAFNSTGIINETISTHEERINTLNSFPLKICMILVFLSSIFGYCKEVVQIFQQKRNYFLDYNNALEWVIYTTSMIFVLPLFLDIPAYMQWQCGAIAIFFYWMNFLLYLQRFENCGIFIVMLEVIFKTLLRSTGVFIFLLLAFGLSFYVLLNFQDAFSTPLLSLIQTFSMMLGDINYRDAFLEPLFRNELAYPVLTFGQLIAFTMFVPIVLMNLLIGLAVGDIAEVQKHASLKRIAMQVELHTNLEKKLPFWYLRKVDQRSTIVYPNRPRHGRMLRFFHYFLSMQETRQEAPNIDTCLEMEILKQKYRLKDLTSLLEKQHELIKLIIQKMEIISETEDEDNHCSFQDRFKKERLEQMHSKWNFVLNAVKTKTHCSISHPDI
# Test name: Agonist activity at rat TRPA1 ion channel expressed in HEK293 cells assessed as calcium influx by fluo-4-Am-based fluorimetry relative to allyl isothiocyanate
# Assay type: functional, cell-based
Here, each record is paired with measured Efficacy data.
Just the number in %, nothing appended.

Data request: Give the reported value of Efficacy for this record: O=C(/C=C/CCCCCCc1ccccc1)CCc1ccc(O)cc1
Data returned: 89.2

====

# Target or test system: Transient receptor potential cation channel subfamily A member 1 (Rattus norvegicus) (UniProt Q6RI86)
# Test name: Agonist activity at rat TRPA1 ion channel expressed in HEK293 cells assessed as calcium influx by fluo-4-Am-based fluorimetry relative to allyl isothiocyanate
# Assay type: functional, cell-based
# binarize Efficacy: threshold 50% inclusive, high side true (1), low side false (0)

The examples below pair each entry with its known result.
1. CCCCCC(O)CC(=O)CCc1ccccc1 (configuration not stated)	false (0)
2. CC(C)c1cc(CCC(=O)CC(O)CCCCCCc2ccccc2)cc(C(C)C)c1O (configuration not stated)	false (0)
3. CCCCCC(O)CC(=O)CCc1cc(C(C)C)c(O)c(C(C)C)c1 (configuration not stated)	true (1)
4. CCCCCC(O)CC(=O)CCc1ccc(O)cc1 (configuration not stated)	true (1)
5. O=C(CCc1ccccc1)CC(O)Cc1ccccc1 (configuration not stated)	false (0)
6. CCCCC/C=C/C(=O)CCc1ccc(O)c(OC)c1	true (1)

Data request: Could you tell me if the measured Efficacy of O=C(CCc1ccc2c(c1)OCO2)CC(O)Cc1ccccc1 (configuration not stated) reaches 50% or more?
Data returned: false (0)

Data request: API: above_or_equal(metric=Efficacy, cutoff=50%) for item O=C(CCc1ccc(O)cc1)CC(O)Cc1ccccc1 (configuration not stated)
Data returned: true (1)

Data request: Could you tell me if the measured Efficacy of O=C(CCc1ccccc1)CC(O)CCCCCCc1ccccc1 (configuration not stated) reaches 50% or more?
Data returned: false (0)

Data request: Could you verify whether the entry COc1cc(CNC(=O)CCCC/C=C/C(C)C)ccc1O shows Efficacy of no less than 50%?
Data returned: true (1)

Data request: Answer whether Efficacy of COc1cc(CCC(=O)CC(O)CCCCCCc2ccccc2)ccc1O (configuration not stated) is greater than or equal to 50%.
Data returned: false (0)

====

# Target or test system: Transient receptor potential cation channel subfamily V member 1 (Homo sapiens)
# Test name: Agonist activity at human TRPV1 ion channel expressed in HEK293 cells assessed as calcium influx by fluo-4-Am-based fluorimetry
Measured property: EC50 (nM)
Give just the number in nM; leave the unit off.

1. COc1cc(CCC(=O)CC(O)Cc2ccccc2)ccc1O (stereo unspecified)	14300
2. CCCCCC(O)CC(=O)CCc1ccc(O)cc1 (stereo unspecified)	1200

Data request: Fetch value of EC50 on Transient receptor potential cation channel subfamily V member 1 (Homo sapiens) for CCCCCC(O)CC(=O)CCc1ccc(O)c(OC)c1 (racemic) .
Data returned: 3300

Data request: Specify the recorded EC50 for CCCCC/C=C/C(=O)CCc1ccc(O)c(OC)c1 [SHOGAOL] , system: Transient receptor potential cation channel subfamily V member 1 (Homo sapiens).
Data returned: 320

Data request: Report EC50 under test system Transient receptor potential cation channel subfamily V member 1 (Homo sapiens) for COc1cc(CCC(=O)CC(O)CCCCCCc2ccccc2)ccc1O (stereo unspecified) .
Data returned: 110

Data request: Print Transient receptor potential cation channel subfamily V member 1 (Homo sapiens) EC50 for O=C(/C=C/CCCCCCc1ccccc1)CCc1ccc(O)cc1 .
Data returned: 100

====

# Target or test system: Transient receptor potential cation channel subfamily A member 1 (Rattus norvegicus)
# Test name: Antagonist activity at rat TRPA1 ion channel expressed in HEK293 cells assessed as inhibition of AITC-induced calcium influx incubated for 5 mins prior to AITC-induction by fluo-4-AM-based fluorimetry
Measured property: IC50 (µM)
Unit µM implied. Number only.

1. CC(C)c1cc(CCC(=O)CC(O)CCCCCCc2ccccc2)cc(C(C)C)c1O (stereo not given)	11.1
2. COc1cc(CCC(=O)CC(O)Cc2ccccc2)ccc1O (stereo not given)	97.8
3. CCCCCC(O)CC(=O)CCc1ccc(O)cc1 (stereo not given)	22.6

Data request: Hello, please tell me recorded IC50 for this one: COc1cc(CCC(=O)CC(O)CCCCCCc2ccccc2)ccc1O (stereo not given)
Data returned: 38.2

====

# Target or test system: Transient receptor potential cation channel subfamily V member 1 (Homo sapiens, UniProt Q8NER1)
# Sequence (Q8NER1 whole entry): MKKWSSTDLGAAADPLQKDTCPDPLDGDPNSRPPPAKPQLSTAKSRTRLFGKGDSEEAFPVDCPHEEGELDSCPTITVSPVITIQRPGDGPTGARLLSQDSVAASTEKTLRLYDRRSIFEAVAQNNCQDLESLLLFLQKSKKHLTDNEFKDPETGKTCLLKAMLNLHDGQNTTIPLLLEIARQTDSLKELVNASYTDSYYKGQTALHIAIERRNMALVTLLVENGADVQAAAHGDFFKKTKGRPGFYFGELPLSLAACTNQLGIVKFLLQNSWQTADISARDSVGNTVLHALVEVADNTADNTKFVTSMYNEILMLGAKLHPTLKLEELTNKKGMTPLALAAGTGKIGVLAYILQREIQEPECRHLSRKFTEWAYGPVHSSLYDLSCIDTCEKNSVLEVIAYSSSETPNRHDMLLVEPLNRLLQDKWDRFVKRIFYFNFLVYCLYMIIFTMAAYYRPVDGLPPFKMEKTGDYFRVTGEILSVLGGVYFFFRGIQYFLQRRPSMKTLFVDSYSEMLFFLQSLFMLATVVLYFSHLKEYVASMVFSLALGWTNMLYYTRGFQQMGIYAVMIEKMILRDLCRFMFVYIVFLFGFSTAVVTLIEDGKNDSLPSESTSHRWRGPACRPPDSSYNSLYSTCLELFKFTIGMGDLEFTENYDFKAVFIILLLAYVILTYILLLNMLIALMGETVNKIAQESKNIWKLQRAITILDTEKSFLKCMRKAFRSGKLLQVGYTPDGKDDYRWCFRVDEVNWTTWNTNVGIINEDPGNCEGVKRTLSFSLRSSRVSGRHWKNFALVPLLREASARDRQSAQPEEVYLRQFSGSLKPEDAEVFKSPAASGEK
# Test name: Antagonist activity at human TRPV1 ion channel expressed in HEK293 cells assessed as inhibition of capsaicin-induced calcium influx incubated for 5 mins prior to capsicin-induction by fluo-4-AM-based fluorimetry
pIC50: −log10 of the molar value.
Classification field: 1 (yes) = pIC50 at or over 5; 0 (no) = pIC50 under 5.

1. O=C(/C=C/CCCCCCc1ccccc1)CCc1ccc(O)cc1	1 (yes)
2. COc1cc(CCC(=O)CC(O)CCCCCCc2ccccc2)ccc1O (stereo not drawn)	1 (yes)
3. O=C(CCc1ccc(O)cc1)CC(O)Cc1ccccc1 (stereo not drawn)	0 (no)
4. CC(C)c1cc(CCC(=O)CC(O)CCCCCCc2ccccc2)cc(C(C)C)c1O (stereo not drawn)	0 (no)
5. CC(C)c1cc(CCC(=O)CC(O)Cc2ccccc2)cc(C(C)C)c1O (stereo not drawn)	0 (no)

Now look at this entry.
Data request: Hi, just wondering whether CCCCCC(O)CC(=O)CCc1cc(C(C)C)c(O)cc1C (stereo not drawn) shows pIC50 of 5 or higher.
Data returned: 1 (yes)

====

Each item that follows carries a reported EC50.
# Target or test system: Transient receptor potential cation channel subfamily A member 1 (Rattus norvegicus, UniProt Q6RI86)
# Test name: Agonist activity at rat TRPA1 ion channel expressed in HEK293 cells assessed as calcium influx by fluo-4-Am-based fluorimetry
Give the number; µM is assumed, so skip it.

1. Cc1cc(O)c(C(C)C)cc1CCC(=O)CC(O)CCCCCCc1ccccc1 (centres undefined)	22.1
2. CCCCC/C=C/C(=O)CCc1ccc(O)c(OC)c1	16
3. Cc1cc(O)c(C(C)C)cc1CCC(=O)CC(O)Cc1ccccc1 (centres undefined)	3.5

Data request: Given O=C(CCc1ccc(O)cc1)CC(O)Cc1ccccc1 (centres undefined) , respond with its EC50.
Data returned: 10.7

Data request: Given the molecule O=C(/C=C/CCCCCCc1ccccc1)CCc1ccc(O)cc1 , write its reported EC50.
Data returned: 2.2

Data request: Given the molecule CCCCCC(O)CC(=O)CCc1cc(C(C)C)c(O)cc1C (centres undefined) , write its reported EC50.
Data returned: 1.1

Data request: Provide one value: measured EC50 of CCCCCC(O)CC(=O)CCc1ccc(O)c(OC)c1 (racemic)
Data returned: 10.4

Data request: Provide measured EC50 value, entry: CCCCCC(O)CC(=O)CCc1ccc(O)cc1 (centres undefined)
Data returned: 8.4

Data request: Report EC50, nothing else, for this molecule: CCCCCC(O)CC(=O)CCc1cc(C(C)C)c(O)c(C(C)C)c1 (centres undefined)
Data returned: 2.1

====

# Target or test system: Transient receptor potential cation channel subfamily V member 1 (Homo sapiens, UniProt Q8NER1)
# Test name: Antagonist activity at human TRPV1 ion channel expressed in HEK293 cells assessed as inhibition of capsaicin-induced calcium influx incubated for 5 mins prior to capsicin-induction by fluo-4-AM-based fluorimetry
Listing of recorded IC50 by entry.
Numeric only. Scale: µM

Here is how some compounds turned out for IC50.
1) Cc1cc(O)c(C(C)C)cc1CCC(=O)CC(O)Cc1ccccc1 (configuration not stated)	35.3
2) CCCCCC(O)CC(=O)CCc1ccc(O)cc1 (configuration not stated)	10.5

Data request: Give reported IC50 value for Cc1cc(O)c(C(C)C)cc1CCC(=O)CC(O)CCCCCCc1ccccc1 (configuration not stated)
Data returned: 1.3

Data request: Could you please provide reported IC50 for CCCCC/C=C/C(=O)CCc1ccc(O)c(OC)c1 ? Thanks!
Data returned: 0.29

Data request: Please look at this compound and report its IC50: CCCCCC(O)CC(=O)CCc1ccc(O)c(OC)c1 (racemic)
Data returned: 5

Data provenance is ChEMBL document CHEMBL1949507.
